- method-summary: melting temperature; fluorescence melt of hairpins on a sequencing array, two-state fit, raised by 9.35 °C to match UV melts
- measurement-parameters: sodium 0.088 M
For each record, write down the corresponding Tm.
Answers are plain numbers, in °C.

# annotated cases, reported Tm shown
1. GACGCTGGAAACAGCACC (..((((....))))..)
30
2. GCGGTCGAAAGACGGCGC ((((((....)))..)))
63.9
3. GATCTCGCCGAGATC ((((((...))))))
55.2
4. GAGAAGCGAAAGCTACTC (((.(((....))).)))
49.9
5. GGCGGCGCGAAAGCGGCC (((..(((....))))))
59.5

The sequence GTAGCTCGAAAGAGGTAC (((.(((....))).))) showed Tm equal to 56.7

###

- method-summary: folding enthalpy; higher = less favourable; fluorescence melt of hairpins on a sequencing array, two-state fit
- measurement-parameters: sodium 0.088 M
measure-name: folding enthalpy (kcal/mol)
One number for each entry, in kcal/mol.

# annotated cases, reported folding enthalpy shown
1. GTCACCGGAAACGGTGGC (.(((((....))))).)
-29.4
2. GCCTCCGAAAGGACTGGC ((((((....)))..)))
-27.8
3. GGCTAACGAAAGTTCGCC (((.(((....))).)))
-44.2
4. GTGGCCGAAAGGCAGCAC ((((((....)))..)))
-14.1
5. GGTCTGACGAAAGTCACC (((..(((....))))))
-10.4

I would be grateful if you could provide folding enthalpy for each of the following entries.
1. GCCAACGGAAACGTTGAC (.(((((....))))).)
2. GCTCGTGGAAACACGGGC ((.((((....)))).))
3. GACTCTACGAAAGTAGTC (((..(((....))))))
4. GTTTGCTCGAAAGAGAAC (((..(((....))))))
5. TGTTTGAAAAAACA (((((....)))))

1: -16.5; 2: -37.1; 3: -10.9; 4: -14.7; 5: -8.4

###

- method-summary: folding enthalpy; higher = less favourable; fluorescence melt of hairpins on a sequencing array, two-state fit
- measurement-parameters: sodium 0.088 M
For each record, write down the corresponding folding enthalpy.
Numbers only, in kcal/mol.

1. GTGCAAGAAATTGCAC ((((((....))))))
-36.2
2. GGACGCGAAAGCGTGTCC ((((((....)))..)))
-12.7
3. GATCTTGACAAAGATC ((((((....))))))
-44
4. GGCGTCCCGAAAGGGGCC (((..(((....))))))
-14.3
5. GATCGTGTCCACGATC ((((((....))))))
-45.8

I would be grateful if you could provide folding enthalpy for each of the following entries.
1. GGACCCGAAAGGGTATCC ((((((....)))..)))
2. GAAAAAGCGAAAGCTTTC (((..(((....))))))
3. GTTTACGGAAACGCAAAC ((((.((....)).))))
4. GCAACCGAAAGGTGCTGC ((((((....)))..)))
5. GTCGTCGAAAGACATGAC ((((((....)))..)))
6. GATCGACGAGTCGATC ((((((....))))))
7. CGAGTCGGAAACGATCG (((.(((....))))))

1: -11; 2: -12.1; 3: -27.7; 4: -23.5; 5: -17.4; 6: -45.8; 7: -27.4
